experiment: recombinant barcode read abundance after kanamycin selection (control-corrected) (log10(CPM+1)); higher = more efficient recombination; sequences stand for … in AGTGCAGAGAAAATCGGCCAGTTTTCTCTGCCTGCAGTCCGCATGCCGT…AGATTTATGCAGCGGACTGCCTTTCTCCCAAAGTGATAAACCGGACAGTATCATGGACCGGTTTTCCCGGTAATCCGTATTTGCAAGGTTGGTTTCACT; site = the 11-nt target
Threshold check on recombinant barcode read abundance (log10): at or above 0.06 gives Met, strictly below gives Not met.

Q) Given AAATCGTCTTGGGTTCTAACCTGTTGCCT (site AACACGTCTAG) , state whether its recombinant barcode read abundance (log10) is at least 0.06.
A) Met

Q) Given CCGTGGCCTTGGGTTCTAACCTGTTGCTT (site CCGTGGACTAG) , state whether its recombinant barcode read abundance (log10) is at least 0.06.
A) Not met

Q) Given GTGCCTCCTTGGGTTCTAACCTGTTGCTT (site GTGTATCCTAA) , state whether its recombinant barcode read abundance (log10) is at least 0.06.
A) Not met

Q) Given TCCCACTCTTGGGTTCTAACCTGTTGCCT (site TCGCACTCTAG) , state whether its recombinant barcode read abundance (log10) is at least 0.06.
A) Not met

Q) Given TTCACGCCTTGGGTTCTAACCTGTTGCCT (site TTCGCGCCTAG) , state whether its recombinant barcode read abundance (log10) is at least 0.06.
A) Not met

Q) Given GCCAACCCTTGGGTTCTAACCTGTTGCGT (site GCCAACCCTAG) , state whether its recombinant barcode read abundance (log10) is at least 0.06.
A) Met

Q) Given AGGCGTCCTTGGGTTCTAACCTGTTGCCA (site AGGCGTCCTAG) , state whether its recombinant barcode read abundance (log10) is at least 0.06.
A) Met

Q) Given CTCCGTCCTTGGGTTCTAACCTGTTGCCG (site CTCCGTCCTCG) , state whether its recombinant barcode read abundance (log10) is at least 0.06.
A) Met

Q) Given ATGAGGCCTTGGGTTCTAACCTGTTGCCT (site TTGAGGCCTAG) , state whether its recombinant barcode read abundance (log10) is at least 0.06.
A) Met

Q) Given TTACCGACTTGGGTTCTAACCTGTTGCCT (site TTACCGACTAG) , state whether its recombinant barcode read abundance (log10) is at least 0.06.
A) Met

###

Task for the reader: assign each of the following sequences its reported recombinant UMI read abundance (log10).
test: recombinant UMI read abundance after kanamycin selection (control-corrected) (log10(CPM+1)); higher = more efficient recombination; extreme values may be limits of the assay; sequences stand for … in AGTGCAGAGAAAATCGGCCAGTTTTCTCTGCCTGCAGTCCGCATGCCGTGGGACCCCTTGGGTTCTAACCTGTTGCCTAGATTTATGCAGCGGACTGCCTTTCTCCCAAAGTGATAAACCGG…AGGTTGGTTTCACT; site = the 11-nt donor
Number only, no unit.

Item: CTCACGCCATGGACCGGTTTTCCCGGTAATCCGTATTTGTG (site CTCACGCCTCA) | recombinant UMI read abundance (log10): 0

Item: CTGGAGGCATGGACCGGTTTTCCCGGTAATCCGTATTTGTG (site CTGGAGGCTCA) | recombinant UMI read abundance (log10): 1.02

Item: GGTCGAACATGGACCGGTTTTCCCGGTAATCCGTATTTGTA (site GGTCCAACTTA) | recombinant UMI read abundance (log10): 0.00781

Item: ATTGTTGCATGGACCGGTTTTCCCGGTAATCCGTATTTGCT (site ATTGTTGCTAG) | recombinant UMI read abundance (log10): 2.37

Item: ATAGCTGCATGGACCGGTTTTCCCGGTAATCCGTATTTGTG (site CTAGCTGCTCA) | recombinant UMI read abundance (log10): 0.647

Item: CGGACGACATGGACCGGTTTTCCCGGTAATCCGTATTTGGT (site CGGACGACTAC) | recombinant UMI read abundance (log10): 1.25

Item: ACCAATTCATGGACCGGTTTTCCCGGTAATCCGTATTTGCC (site ACCAATTCTGG) | recombinant UMI read abundance (log10): 2.25

Item: ATGTAGACATGGACCGGTTTTCCCGGTAATCCGTATTTGGC (site ATGTAGTCTGC) | recombinant UMI read abundance (log10): 1.67

Item: TAGTGCCCATGGACCGGTTTTCCCGGTAATCCGTATTTGGC (site TAGTGCCCTGC) | recombinant UMI read abundance (log10): 0

Item: CGCATATCATGGACCGGTTTTCCCGGTAATCCGTATTTGTC (site CTCATATCTGA) | recombinant UMI read abundance (log10): 0.436

Item: ATCGATACATGGACCGGTTTTCCCGGTAATCCGTATTTGAC (site ATCCATACTGT) | recombinant UMI read abundance (log10): 0

Item: TGTCCAGCATGGACCGGTTTTCCCGGTAATCCGTATTTGTG (site TGTCCAGCTCA) | recombinant UMI read abundance (log10): 0.0483

Item: CGATGACCATGGACCGGTTTTCCCGGTAATCCGTATTTGGG (site CGATGACCTCC) | recombinant UMI read abundance (log10): 0.0111

Item: TAGGCCGCATGGACCGGTTTTCCCGGTAATCCGTATTTGTG (site CCATTGACTTT) | recombinant UMI read abundance (log10): 0.00523

Item: AACCGCCCATGGACCGGTTTTCCCGGTAATCCGTATTTGAT (site AACCGGCCTAT) | recombinant UMI read abundance (log10): 0.00971

Item: TAGCTGACATGGACCGGTTTTCCCGGTAATCCGTATTTGCG (site TAGCTGACTCG) | recombinant UMI read abundance (log10): 1.5

Item: CGGTGAGCATGGACCGGTTTTCCCGGTAATCCGTATTTGGA (site CGGTGAGCTTC) | recombinant UMI read abundance (log10): 1.56

Item: GGGACGTCATGGACCGGTTTTCCCGGTAATCCGTATTTGTT (site GGGACGTCTAA) | recombinant UMI read abundance (log10): 1.78
